- Tested on: P388 leukemia ip, CD2F1 mice, survival T/C
- assay_info: NCI In Vivo Anticancer Drug Screen. Data for tumor model P388 Leukemia (intraperitoneal) in CD2F1 (CDF1) mice
- cond: endpoint: median survival time; dose: 6.25 mg/kg/injection; schedule: Q01DX009 (ip); vehicle: saline with Tween-80; higher = longer survival
Inconclusive results and toxic doses are left out.
Each entry below carries its recorded T/C.
readout_kind: T/C

> print(dat)
                                    compound  experimental.result
 1  CC1CCC2N(C1)CC1C3(O)CC45OC6(O)C(O)CCC4(C)C6CCC5C3(O)CC(O)C1(O)C2(C)O (stereo unspecified)     112 % of control
 2  CCCCCCCCCCCCCCCCCCSC1=CC(=O)c2ccccc2C1=O      95 % of control
 3                         Nc1ccc(N=O)c(N)n1     107 % of control
 4    NC(CSP(=O)(O)O)=NCC12CC3CC(CC(C3)C1)C2     104 % of control
 5  COC1OC(COC(=O)c2ccccc2)C=C(OC(=O)c2ccccc2)C1=O (stereo unspecified)     103 % of control
 6  Cc1ccc(C(=O)[Se][Se]C(=O)c2ccc(C)cc2)cc1      98 % of control
 7  Cc1cc(-c2ccc(N=Nc3c(C)nn(-c4ccc(S(=O)(=O)O)cc4)c3O)c(C)c2)ccc1N=Nc1ccc(O)c(C(=O)O)c1     100 % of control
 8     CCCCCCCCSC1=C(Cl)C(=O)C(OC)=C(OC)C1=O     101 % of control
 9      C=CC[N+](CCO)(CCO)CCCCCCCCCCCCCCCCCC     114 % of control
10    COc1ccc(/C=C2/SC(=S)N(C(C)C)C2=O)cc1OC      88 % of control
11                           Clc1ccc2nsnc2c1     101 % of control
